- assay_remarks: Determination of protonation constants (fluorescence dependence on pH)
- Type: physicochemical
- stated_conditions: aqueous solution of 100 mM KCl, 10 mM KOH, 1 μM probe, pH ~12 to ~3, read-out: pKa, protonation of the aniline nitrogen atom
recorded_endpoint: pKa
Give only the figure.

Q: State the recorded pKa for this entry: CCSCCN(CCSCC)Cc1ccccc1NCc1c(O)ccc2c(-c3ccccc3C(=O)O)c3cc(Cl)c(=O)cc-3oc12 [sensor 3]
A: 7.1

###

- assay_remarks: Determination of protonation constants (fluorescence dependence on pH)
- Format: physicochemical
- stated_conditions: aqueous solution of 100 mM KCl, 10 mM KOH, 1 μM probe, pH ~12 to ~3, read-out: pKa, formation of a non-fluorescent isomer
recorded_endpoint: pKa
# print the numeric value only

Q: Could you tell me which pKa is on file for CCSCCN(CCSCC)Cc1ccccc1NCc1c(O)ccc2c(-c3ccccc3C(=O)O)c3cc(Cl)c(=O)cc-3oc12 ?
A: 4.8

###

- assay_remarks: Fluorescence response of sensor to Hg^2+ (fluorescence spectroscopy, integrated emission)
- Type: binding
- stated_conditions: 500 nM probe, pH 7; read-out: EC50 (concentration of Hg^2+ required to achieve 50% of maximum fluorescence)
recorded_endpoint: pEC50
In simple prose, pEC50 is minus the logarithm base ten of a concentration in moles per litre.

Q: I am curious: what pEC50 value has been reported for CCSCCN(CCSCC)Cc1ccccc1NCc1c(O)ccc2c(-c3ccccc3C(=O)O)c3cc(Cl)c(=O)cc-3oc12 [sensor 3] ?
A: 6.39
